// reported IC50 for each item listed
# system tested: human vitronectin receptor (αv β3) (Homo sapiens, UniProt P05106+P06756)
# Construct: purified from human placenta; from tissue; host or cells: human placenta
# Sequence (P06756 31-889 limits assumed): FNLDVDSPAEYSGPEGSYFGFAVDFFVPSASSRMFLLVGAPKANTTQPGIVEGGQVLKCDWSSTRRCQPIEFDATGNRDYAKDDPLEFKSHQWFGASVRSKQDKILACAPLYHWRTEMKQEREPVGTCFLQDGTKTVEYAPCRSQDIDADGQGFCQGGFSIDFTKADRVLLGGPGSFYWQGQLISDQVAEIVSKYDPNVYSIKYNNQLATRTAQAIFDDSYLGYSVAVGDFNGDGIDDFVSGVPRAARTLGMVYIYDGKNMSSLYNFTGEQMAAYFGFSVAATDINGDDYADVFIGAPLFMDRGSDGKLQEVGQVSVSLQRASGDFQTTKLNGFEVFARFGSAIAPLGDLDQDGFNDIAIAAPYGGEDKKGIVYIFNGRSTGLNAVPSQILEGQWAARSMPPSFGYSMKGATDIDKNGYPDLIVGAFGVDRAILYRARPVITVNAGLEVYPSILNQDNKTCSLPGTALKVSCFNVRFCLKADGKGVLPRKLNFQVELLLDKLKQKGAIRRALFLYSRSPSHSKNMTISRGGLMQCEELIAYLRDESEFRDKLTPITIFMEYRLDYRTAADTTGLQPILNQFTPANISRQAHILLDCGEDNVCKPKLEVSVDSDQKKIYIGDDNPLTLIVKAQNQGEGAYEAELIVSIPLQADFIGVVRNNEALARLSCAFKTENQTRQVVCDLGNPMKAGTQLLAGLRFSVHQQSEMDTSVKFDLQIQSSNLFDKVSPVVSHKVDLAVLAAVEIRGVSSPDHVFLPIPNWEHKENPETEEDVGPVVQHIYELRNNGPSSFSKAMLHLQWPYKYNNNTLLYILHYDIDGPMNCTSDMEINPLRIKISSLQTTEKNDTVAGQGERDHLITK
# Sequence (P06756 891-1048 limits assumed): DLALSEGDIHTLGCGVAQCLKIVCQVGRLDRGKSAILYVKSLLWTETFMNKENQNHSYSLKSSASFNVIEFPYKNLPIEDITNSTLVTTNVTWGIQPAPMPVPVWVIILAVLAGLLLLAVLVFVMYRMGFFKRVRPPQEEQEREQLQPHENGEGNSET
# Sequence (P05106 27-788): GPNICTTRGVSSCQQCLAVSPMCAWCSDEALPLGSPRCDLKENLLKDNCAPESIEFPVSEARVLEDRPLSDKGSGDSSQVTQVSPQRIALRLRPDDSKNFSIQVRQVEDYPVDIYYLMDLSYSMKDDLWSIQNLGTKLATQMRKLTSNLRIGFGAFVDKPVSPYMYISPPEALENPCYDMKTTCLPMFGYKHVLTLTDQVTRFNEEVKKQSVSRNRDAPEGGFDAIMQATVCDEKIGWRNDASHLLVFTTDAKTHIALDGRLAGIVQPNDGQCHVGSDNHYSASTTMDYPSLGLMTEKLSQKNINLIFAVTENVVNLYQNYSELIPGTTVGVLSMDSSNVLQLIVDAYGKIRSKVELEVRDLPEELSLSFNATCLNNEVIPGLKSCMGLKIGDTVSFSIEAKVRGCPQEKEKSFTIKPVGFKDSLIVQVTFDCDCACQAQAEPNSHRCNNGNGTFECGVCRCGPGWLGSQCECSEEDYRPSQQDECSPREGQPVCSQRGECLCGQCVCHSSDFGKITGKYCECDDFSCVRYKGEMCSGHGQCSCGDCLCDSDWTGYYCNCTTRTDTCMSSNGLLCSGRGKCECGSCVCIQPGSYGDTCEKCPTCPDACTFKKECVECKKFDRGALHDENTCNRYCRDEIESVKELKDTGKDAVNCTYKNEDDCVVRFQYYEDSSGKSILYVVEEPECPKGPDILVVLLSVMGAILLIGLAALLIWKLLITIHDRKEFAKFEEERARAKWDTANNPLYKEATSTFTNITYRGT
# protocol text: Vitronectin adhesion assay, solid phase receptor assay (inhibition of biotinylated vitronectin binding to purified αvβ3)
# test conditions: 1 nM biotinylated human vitronectin, purified receptor, pH 7.4, 2 h competition; read-out: αv β3 IC50
Counter-ions that a name gives are not always drawn.
Please reply with the bare figure in nM and do not write the unit itself.

compound="O=C(O)CC(NC(=O)CNC(=O)c1cc(O)cc(NC2=NCC(O)CN2)c1)c1cc(Cl)cc(Cl)c1O (stereo not drawn)" system_tested="human vitronectin receptor (αv β3) (Homo sapiens, UniProt P05106+P06756)" quantity_name=IC50 test_result=1.04
compound="O=C(O)C[C@H](NC(=O)CNC(=O)c1cc(O)cc(N=C2NCC(O)CN2)c1)c1cc(Cl)cc(Cl)c1O (stereo partly drawn) [Example 8, monohydrochloride monohydrate]" system_tested="human vitronectin receptor (αv β3) (Homo sapiens, UniProt P05106+P06756)" quantity_name=IC50 test_result=0.4
compound="O=C(O)C[C@H](NC(=O)CNC(=O)c1cc(O)cc(N=C2NCC(O)CN2)c1)c1cc(Br)cc(Cl)c1O (stereo partly drawn)" system_tested="human vitronectin receptor (αv β3) (Homo sapiens, UniProt P05106+P06756)" quantity_name=IC50 test_result=1.01
compound="O=C(O)CC(NC(=O)CNC(=O)c1cc(O)cc(NC2=NCC(O)CN2)c1)c1cc(Cl)cc(I)c1O (stereo not drawn)" system_tested="human vitronectin receptor (αv β3) (Homo sapiens, UniProt P05106+P06756)" quantity_name=IC50 test_result=2.13
compound="O=C(O)CC(NC(=O)CNC(=O)c1cc(O)cc(NC2=NCC(O)CN2)c1)c1cc(Br)cc(Cl)c1O (stereo not drawn)" system_tested="human vitronectin receptor (αv β3) (Homo sapiens, UniProt P05106+P06756)" quantity_name=IC50 test_result=2.02

Query: IC50; subject: O=C(O)C[C@H](NC(=O)CNC(=O)c1cc(O)cc(NC2=NCC(O)CN2)c1)c1cc(Br)cc(Br)c1O (stereo partly drawn)
2.26

Thanks! And O=C(O)C[C@H](NC(=O)CNC(=O)c1cc(O)cc(NC2=NCC(O)CN2)c1)c1cc(Cl)cc(Br)c1O (stereo partly drawn) [Example 9, trifluoroacetate salt] ?
0.37

Thanks! And O=C(O)CC(NC(=O)CNC(=O)c1cc(O)cc(NC2=NCC(O)CN2)c1)c1cc(Cl)cc(Br)c1O (racemic) ?
0.88

Thanks! And O=C(O)CC(NC(=O)CNC(=O)c1cc(O)cc(NC2=NCC(O)CN2)c1)c1cc(Br)cc(Br)c1O (stereo not drawn) ?
6.46

Thanks! And O=C(O)CC(NC(=O)CNC(=O)c1cc(O)cc(NC2=NCC(O)CN2)c1)c1cc(Br)cc(I)c1O (stereo not drawn) ?
23.7

Thanks! And O=C(O)C[C@H](NC(=O)CNC(=O)c1cc(O)cc(NC2=NCC(O)CN2)c1)c1cc(Br)cc(I)c1O (stereo partly drawn) ?
9.59

Thanks! And O=C(O)C[C@H](NC(=O)CNC(=O)c1cc(O)cc(NC2=NCC(O)CN2)c1)c1cc(Cl)cc(Br)c1O (stereo partly drawn) [9 · HCl] ?
0.82

----------
# system tested: human vitronectin receptor (αv β3) (Homo sapiens, UniProt P05106+P06756)
# Construct: purified from human placenta; from tissue; host or cells: human placenta
# protocol text: Vitronectin adhesion assay, solid phase receptor assay (inhibition of biotinylated vitronectin binding to purified αvβ3)
# test conditions: positive control included on each plate; read-out: αv β3 antagonist IC50 of positive control
quantity name: IC50

Query for human vitronectin receptor (αv β3) (Homo sapiens, UniProt P05106+P06756): what IC50 does the record show for N=C(N)NCCCCC(=O)NCC(=O)NC(CC(=O)O)c1cccnc1 (stereo not shown) [reference compound] ?
3 to 10 nM

----------
# system tested: human fibrinogen receptor (αIIb β3) (Homo sapiens, UniProt P05106+P08514)
# Construct: purified from outdated platelets
# Sequence (P08514 32-887 limits assumed): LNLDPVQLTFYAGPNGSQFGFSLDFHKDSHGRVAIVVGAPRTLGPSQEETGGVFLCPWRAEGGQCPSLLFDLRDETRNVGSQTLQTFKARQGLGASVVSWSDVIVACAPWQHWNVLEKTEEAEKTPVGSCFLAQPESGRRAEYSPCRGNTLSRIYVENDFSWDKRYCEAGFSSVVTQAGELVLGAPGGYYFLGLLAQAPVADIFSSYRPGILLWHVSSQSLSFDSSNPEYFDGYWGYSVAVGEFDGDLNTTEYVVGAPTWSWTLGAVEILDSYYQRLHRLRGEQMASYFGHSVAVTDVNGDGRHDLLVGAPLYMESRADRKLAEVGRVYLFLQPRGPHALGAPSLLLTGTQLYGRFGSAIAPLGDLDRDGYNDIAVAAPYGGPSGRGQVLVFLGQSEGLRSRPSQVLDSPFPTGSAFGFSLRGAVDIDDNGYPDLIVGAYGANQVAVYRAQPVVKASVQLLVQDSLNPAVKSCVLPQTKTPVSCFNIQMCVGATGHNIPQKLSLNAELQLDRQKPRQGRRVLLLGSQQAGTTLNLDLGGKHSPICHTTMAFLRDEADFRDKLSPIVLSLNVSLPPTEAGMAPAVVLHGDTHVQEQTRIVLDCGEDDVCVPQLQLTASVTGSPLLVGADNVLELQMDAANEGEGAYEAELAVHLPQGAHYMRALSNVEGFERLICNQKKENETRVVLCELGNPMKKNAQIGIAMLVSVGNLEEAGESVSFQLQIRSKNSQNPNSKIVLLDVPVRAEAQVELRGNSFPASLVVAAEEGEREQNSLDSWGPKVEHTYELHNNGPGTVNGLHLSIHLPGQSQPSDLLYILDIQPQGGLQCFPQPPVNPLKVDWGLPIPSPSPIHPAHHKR
# Sequence (P08514 891-1039 limits assumed): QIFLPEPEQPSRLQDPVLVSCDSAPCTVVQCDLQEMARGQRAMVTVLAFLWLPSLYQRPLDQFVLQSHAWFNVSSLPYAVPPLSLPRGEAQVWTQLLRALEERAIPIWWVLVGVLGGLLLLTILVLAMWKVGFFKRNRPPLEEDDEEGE
# Sequence (P05106 27-788): as the sequence (P05106 27-788) above
# protocol text: Purified IIb/IIIa receptor assay, solid phase receptor assay (inhibition of biotinylated vitronectin binding)
# test conditions: 1 nM biotinylated human vitronectin, pH 7.4, 2 h competition
Where a name gives a salt, the structure may show the parent alone.
// reported pIC50 for each item listed
Expect pIC50 as a plain number equal to -log10 of the molar concentration.

compound="O=C(O)C[C@H](NC(=O)CNC(=O)c1cc(O)cc(NC2=NCC(O)CN2)c1)c1cc(Cl)cc(Br)c1O (some centres unmarked) [9 · HCl]" system_tested="human fibrinogen receptor (αIIb β3) (Homo sapiens, UniProt P05106+P08514)" quantity_name=pIC50 test_result=6.65
compound="O=C(O)CC(NC(=O)CNC(=O)c1cc(O)cc(NC2=NCC(O)CN2)c1)c1cc(Br)cc(I)c1O (centres unmarked) [Example 3]" system_tested="human fibrinogen receptor (αIIb β3) (Homo sapiens, UniProt P05106+P08514)" quantity_name=pIC50 test_result=5.61
compound="O=C(O)C[C@H](NC(=O)CNC(=O)c1cc(O)cc(N=C2NCC(O)CN2)c1)c1cc(Br)cc(Cl)c1O (some centres unmarked) [Example 7]" system_tested="human fibrinogen receptor (αIIb β3) (Homo sapiens, UniProt P05106+P08514)" quantity_name=pIC50 test_result=6.58
compound="O=C(O)C[C@H](NC(=O)CNC(=O)c1cc(O)cc(N=C2NCC(O)CN2)c1)c1cc(Cl)cc(Cl)c1O (some centres unmarked) [Example 8, monohydrochloride monohydrate]" system_tested="human fibrinogen receptor (αIIb β3) (Homo sapiens, UniProt P05106+P08514)" quantity_name=pIC50 test_result=6.88

// moving on: another record for pIC50
Query: pIC50; subject: O=C(O)C[C@H](NC(=O)CNC(=O)c1cc(O)cc(NC2=NCC(O)CN2)c1)c1cc(Cl)cc(Br)c1O (some centres unmarked) [Example 9, trifluoroacetate salt]
6.41

----------
# system tested: human fibrinogen receptor (αIIb β3) (Homo sapiens, UniProt P05106+P08514)
# Construct: purified from outdated platelets
# protocol text: Purified IIb/IIIa receptor assay, solid phase receptor assay (inhibition of biotinylated vitronectin binding)
# test conditions: 1 nM biotinylated human vitronectin, pH 7.4, 2 h competition
// reported pIC50 for each item listed
Expect pIC50 as a plain number equal to -log10 of the molar concentration.

As a guide, the following entries are already answered.
compound="O=C(O)C[C@H](NC(=O)CNC(=O)c1cc(O)cc(NC2=NCC(O)CN2)c1)c1cc(Br)cc(I)c1O (stereo partly shown)" test_result=5.97
compound="O=C(O)CC(NC(=O)CNC(=O)c1cc(O)cc(NC2=NCC(O)CN2)c1)c1cc(Br)cc(Br)c1O (stereo not shown)" test_result=6.04
compound="O=C(O)CC(NC(=O)CNC(=O)c1cc(O)cc(NC2=NCC(O)CN2)c1)c1cc(Cl)cc(Br)c1O (racemic)" test_result=6.51
compound="O=C(O)C[C@H](NC(=O)CNC(=O)c1cc(O)cc(NC2=NCC(O)CN2)c1)c1cc(Br)cc(Br)c1O (stereo partly shown)" test_result=6.19

Query: pIC50; subject: O=C(O)CC(NC(=O)CNC(=O)c1cc(O)cc(NC2=NCC(O)CN2)c1)c1cc(Cl)cc(Cl)c1O (stereo not shown)
6.37

Thanks! And O=C(O)CC(NC(=O)CNC(=O)c1cc(O)cc(NC2=NCC(O)CN2)c1)c1cc(Br)cc(Cl)c1O (stereo not shown) ?
6.24

Thanks! And O=C(O)CC(NC(=O)CNC(=O)c1cc(O)cc(NC2=NCC(O)CN2)c1)c1cc(Cl)cc(I)c1O (stereo not shown) ?
6.13
